Molecular target: UniProt:P06401
Sequence (P06401 whole entry): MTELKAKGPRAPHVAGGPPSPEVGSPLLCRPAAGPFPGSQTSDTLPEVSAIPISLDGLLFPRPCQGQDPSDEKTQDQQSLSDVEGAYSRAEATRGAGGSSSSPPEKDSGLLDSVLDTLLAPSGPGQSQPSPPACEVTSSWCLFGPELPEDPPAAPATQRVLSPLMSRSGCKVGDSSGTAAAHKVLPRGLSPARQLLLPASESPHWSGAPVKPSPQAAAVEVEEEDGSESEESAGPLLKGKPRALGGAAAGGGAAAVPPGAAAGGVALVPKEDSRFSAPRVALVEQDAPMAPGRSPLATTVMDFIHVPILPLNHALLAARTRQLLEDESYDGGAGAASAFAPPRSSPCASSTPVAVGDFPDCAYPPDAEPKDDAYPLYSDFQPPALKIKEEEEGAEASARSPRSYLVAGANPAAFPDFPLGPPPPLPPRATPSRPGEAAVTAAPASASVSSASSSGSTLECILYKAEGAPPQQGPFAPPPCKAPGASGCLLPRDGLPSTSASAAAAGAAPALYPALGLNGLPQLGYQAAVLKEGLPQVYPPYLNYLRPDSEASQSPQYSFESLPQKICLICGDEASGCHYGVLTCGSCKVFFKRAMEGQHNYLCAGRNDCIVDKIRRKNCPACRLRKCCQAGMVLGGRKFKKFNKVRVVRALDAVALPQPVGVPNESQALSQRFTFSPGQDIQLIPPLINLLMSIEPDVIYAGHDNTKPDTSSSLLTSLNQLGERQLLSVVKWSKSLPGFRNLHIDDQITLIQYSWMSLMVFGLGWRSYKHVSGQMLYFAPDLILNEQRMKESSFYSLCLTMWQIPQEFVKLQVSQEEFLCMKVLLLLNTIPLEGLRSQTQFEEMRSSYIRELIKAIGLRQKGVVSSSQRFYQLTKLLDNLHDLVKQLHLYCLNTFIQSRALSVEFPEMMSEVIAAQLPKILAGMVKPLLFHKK
Type: functional
Experimental Endpoint: AC50

Prompt line: Look up and report measured AC50 for this entry: `C[C@H](CSC(=O)c1ccccc1)C(=O)N1C[C@@H](Sc2ccccc2)C[C@H]1C(=O)O`
Response line: > 10 µM

Prompt line: Look up and report measured AC50 for this entry: `CO[C@@H]1[C@@H](O[C@@H]2O[C@H](C)[C@@H](O[C@H]3C[C@@](C)(O)[C@@H](OC(=O)CC(C)C)[C@H](C)O3)[C@H](N(C)C)[C@H]2O)[C@@H](CC=O)C[C@@H](C)[C@@H](O)/C=C/C=C/C[C@@H](C)OC(=O)C[C@H]1OC(C)=O`
Response line: > 10 µM

Prompt line: Look up and report measured AC50 for this entry: `COc1ccccc1N1CCN(CCCNc2cc(=O)n(C)c(=O)n2C)CC1`
Response line: > 30 µM

Prompt line: Look up and report measured AC50 for this entry: Cn1nnc2c(C(N)=O)ncn2c1=O [TEMOZOLOMIDE]
Response line: > 30 µM

Prompt line: Look up and report measured AC50 for this entry: `CC=CC(=O)N(CC)c1ccccc1C`
Response line: > 10 µM

Prompt line: Look up and report measured AC50 for this entry: `C=CCC1(CC(C)C)C(=O)NC(=O)NC1=O`
Response line: > 10 µM

Prompt line: Look up and report measured AC50 for this entry: Cc1cccc(C(C)c2cnc[nH]2)c1C (stereo not given)
Response line: > 30 µM

Prompt line: Look up and report measured AC50 for this entry: COc1ccc(CCNCC(O)COc2cccc(C)c2)cc1OC (stereo not given)
Response line: > 10 µM

Prompt line: Look up and report measured AC50 for this entry: `CC[C@H]1CN2CCc3cc(OC)c(OC)cc3[C@@H]2C[C@@H]1C[C@H]1NCCc2cc(OC)c(OC)cc21`
Response line: > 30 µM

Prompt line: Look up and report measured AC50 for this entry: CCC(C(=O)O)c1ccc(N2Cc3ccccc3C2=O)cc1 (stereo not given)
Response line: > 30 µM

Prompt line: Look up and report measured AC50 for this entry: O=C(NCCNCC(O)COc1ccc(O)cc1)N1CCOCC1 (stereo not given)
Response line: > 30 µM

Prompt line: Look up and report measured AC50 for this entry: Cc1ccc(S(=O)(=O)NC(=O)NN2CC3CCCC3C2)cc1 (stereo not given) [GLICLAZIDE]
Response line: > 10 µM

Prompt line: Look up and report measured AC50 for this entry: `Cc1cccc(Nc2ccccc2C(=O)O)c1C`
Response line: > 10 µM

Prompt line: Look up and report measured AC50 for this entry: `C[C@@H](O)[C@H]1C(=O)N2C(C(=O)O)=C(S[C@@H]3CN[C@H](C(=O)N(C)C)C3)[C@H](C)[C@H]12`
Response line: > 300 µM

Prompt line: Look up and report measured AC50 for this entry: NC(=O)CN1CC(O)CC1=O (stereo not given)
Response line: > 30 µM

Prompt line: Look up and report measured AC50 for this entry: NC(=O)OCC(COC(N)=O)c1ccccc1 [FELBAMATE]
Response line: > 10 µM

Prompt line: Look up and report measured AC50 for this entry: CN1C(=O)C(O)N=C(c2ccccc2Cl)c2cc(Cl)ccc21 (stereo not given)
Response line: > 30 µM

Prompt line: Look up and report measured AC50 for this entry: `COc1cc2c(N)nc(N3CCN(C(=O)OCC(C)(C)O)CC3)nc2c(OC)c1OC`
Response line: > 30 µM

Prompt line: Look up and report measured AC50 for this entry: `CC(C)Cn1cnc2c(N)nc3ccccc3c21`
Response line: > 10 µM

Prompt line: Look up and report measured AC50 for this entry: `O=C(O)C[C@H](O)C[C@H](O)/C=C/c1c(C2CC2)nc2ccccc2c1-c1ccc(F)cc1`
Response line: > 30 µM

Reference source: ChEMBL document CHEMBL5291721
